# assay.system: TXA2 synthetase (Equus caballus, UniProt A0A9L0T8T9)
# Construct: labelled arachidonic acid as substrate, thromboxane B2 measured by TLC
# test.method.notes: Inhibition of TXA2 synthetase: thromboxane (thromboxane B2) produced from labelled arachidonic acid by homogenised horse platelets
# Assay type: biochemical
# condition.details: read-out: ED50 (concentration of active compound to reduce the enzyme activity by 50%); horse platelet homogenate, 100 mM Tris buffer pH 7.4; 5 min preincubation at ambient temperature; 3 min at 37° C. with arachidonic acid
pIC50: −log10 of the molar value.
property.label: pIC50

Reported pIC50 ( c1c[nH]cn1 ) = ≤ 2.13

----------
# assay.system: TXA2 synthetase (Equus caballus, UniProt A0A9L0T8T9)
# Construct: labelled arachidonic acid as substrate, thromboxane B2 measured by TLC
# Sequence (A0A9L0T8T9 2-534): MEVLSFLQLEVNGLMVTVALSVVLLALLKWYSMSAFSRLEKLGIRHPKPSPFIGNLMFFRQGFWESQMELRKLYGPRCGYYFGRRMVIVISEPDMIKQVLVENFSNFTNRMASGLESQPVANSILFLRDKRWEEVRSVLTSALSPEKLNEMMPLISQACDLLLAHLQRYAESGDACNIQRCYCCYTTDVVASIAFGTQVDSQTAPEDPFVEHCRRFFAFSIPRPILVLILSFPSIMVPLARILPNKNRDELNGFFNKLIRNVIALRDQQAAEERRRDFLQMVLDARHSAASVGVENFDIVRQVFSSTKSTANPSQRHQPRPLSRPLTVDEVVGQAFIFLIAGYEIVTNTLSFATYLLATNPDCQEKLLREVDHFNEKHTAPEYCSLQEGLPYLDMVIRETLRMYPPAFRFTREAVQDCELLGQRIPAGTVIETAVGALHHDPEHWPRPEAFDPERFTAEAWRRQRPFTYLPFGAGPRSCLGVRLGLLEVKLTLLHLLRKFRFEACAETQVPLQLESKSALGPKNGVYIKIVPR
# test.method.notes: Inhibition of TXA2 synthetase: thromboxane (thromboxane B2) produced from labelled arachidonic acid by homogenised horse platelets
# Format: biochemical
# condition.details: horse platelet homogenate, 100 mM Tris buffer pH 7.4; 5 min preincubation at ambient temperature; 3 min at 37° C. with arachidonic acid; read-out: ED50 (concentration of active compound to reduce the enzyme activity by 50%) (converted)
property.label: IC50

Reported IC50 ( c1cn(CC2COC3(CCCCC3)O2)cn1 (stereo not drawn) [Example 10] ) = > 225 µM

Reported IC50 ( CC1(C)C(=CCn2ccnc2)C2CCC1C2 (stereo not drawn) [15 (b)] ) = < 69.3 µM

Reported IC50 ( Cn1ccnc1 [1-Methylimidazole, reference compound] ) = ≥ 2440 µM

Reported IC50 ( c1cn(CCC23CC4CC(CC(C4)C2)C3)cn1 [Example 9, 1-[2-(Adamantan-1-yl)ethyl]imidazole] ) = 65.1 µM

Reported IC50 ( c1cn(CC2CN3CCC2CC3)cn1 (stereo not drawn) [Example 12] ) = 157 µM

Reported IC50 ( c1cn(CC2C3CC4C(C3)C24)cn1 (stereo not drawn) [15 (c)] ) = < 57.4 µM
